# experiment.summary: Stability of six compounds in rat plasma (QC samples)
# Format: in vitro ADME
# conditions.used: At -80°C for 1 month, rat plasma QC sample, low concentration level, n = 6
parameter: Stability, Average (%)
Give just the number in %; leave the unit off.

The following compounds have reported results that may help.
compound: O=C1C[C@@H](c2ccc(O)cc2)Oc2cc(O)ccc21 [LG, liquiritigenin]
Stability, Average, %: 92.8

compound: O=C(/C=C/c1ccc(O[C@@H]2O[C@H](CO)[C@@H](O)[C@H](O)[C@H]2O)cc1)c1ccc(O)cc1O [ILQ, isoliquiritin]
Stability, Average, %: 89.4

(Q) I am curious: what Stability, Average value has been reported for O=C(/C=C/c1ccc(O)cc1)c1ccc(O)cc1O [ILG, isoliquiritigenin] ?
(A) 94.7

(Q) I am curious: what Stability, Average value has been reported for O=C1C[C@@H](c2ccc(O[C@@H]3O[C@H](CO)[C@@H](O)[C@H](O)[C@H]3O)cc2)Oc2cc(O)ccc21 [LQ, liquiritin] ?
(A) 96.4

(Q) I am curious: what Stability, Average value has been reported for CC1(C)[C@@H](O)CC[C@]2(C)[C@H]3C(=O)C=C4[C@@H]5C[C@@](C)(C(=O)O)CC[C@]5(C)CC[C@@]4(C)[C@]3(C)CC[C@@H]12 [GA, glycyrrhetinic acid] ?
(A) 96.2

====

# experiment.summary: Pharmacokinetic study in rats after oral administration of raw/honey-roasting licorice water decoction (UPLC-MS/MS of plasma)
# Format: in vivo, Wistar rats
# conditions.used: male, Wistar, rat, plasma, po, 2.7 g (crude drug)/kg, rat plasma, oral 25% honey-roasting licorice water decoction, 2.7 g (crude drug)/kg, n = 5; read-out: Tmax
Each entry below carries its recorded Tmax.
Please append the unit to your numeric answer.

smiles.structure: CC1(C)[C@@H](O)CC[C@]2(C)[C@H]3C(=O)C=C4[C@@H]5C[C@@](C)(C(=O)O)CC[C@]5(C)CC[C@@]4(C)[C@]3(C)CC[C@@H]12
Tmax: 6.8 h

Below: the item to evaluate.
(Q) I am curious: what Tmax value has been reported for "O=C(/C=C/c1ccc(O)cc1)c1ccc(O)cc1O" ?
(A) 1.5 h

====

# experiment.summary: Stability of six compounds in rat plasma (QC samples)
# Format: in vitro ADME
# conditions.used: At -80°C for 1 month, rat plasma QC sample, medium concentration level, n = 6
parameter: Stability, Average (%)
Give just the number in %; leave the unit off.

The following compounds have reported results that may help.
smiles.structure: O=C(/C=C/c1ccc(O[C@@H]2O[C@H](CO)[C@@H](O)[C@H](O)[C@H]2O)cc1)c1ccc(O)cc1O
unit.tag: %
Stability, Average: 94.2

smiles.structure: CC1(C)[C@@H](O)CC[C@]2(C)[C@H]3C(=O)C=C4[C@@H]5C[C@@](C)(C(=O)O)CC[C@]5(C)CC[C@@]4(C)[C@]3(C)CC[C@@H]12
unit.tag: %
Stability, Average: 102.1

smiles.structure: O=C1C[C@@H](c2ccc(O[C@@H]3O[C@H](CO)[C@@H](O)[C@H](O)[C@H]3O)cc2)Oc2cc(O)ccc21
unit.tag: %
Stability, Average: 95.6

Below: the item to evaluate.
(Q) I am curious: what Stability, Average value has been reported for "O=C(/C=C/c1ccc(O)cc1)c1ccc(O)cc1O" ?
(A) 85.3
